Biological target: T1, human TREM2 (human) (UniProt Q9NZC2)
T1 sequence (looked up): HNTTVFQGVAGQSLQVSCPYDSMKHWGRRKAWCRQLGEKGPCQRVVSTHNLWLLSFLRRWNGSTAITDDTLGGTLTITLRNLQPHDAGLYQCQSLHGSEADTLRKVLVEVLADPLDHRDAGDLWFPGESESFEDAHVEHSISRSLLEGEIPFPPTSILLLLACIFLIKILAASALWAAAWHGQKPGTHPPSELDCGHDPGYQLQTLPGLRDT
Test: 1st screen, 110 nM Ab
Binding Signal (fold over 6E7 parental antibody) strictly under 0.4 fold means Satisfied; at 0.4 fold or over means Not satisfied.

Prompt: # check: Binding Signal (fold over 6E7 parental antibody) < 0.4 fold for 6E7 variant V58 (antibody, V domains shown) VH: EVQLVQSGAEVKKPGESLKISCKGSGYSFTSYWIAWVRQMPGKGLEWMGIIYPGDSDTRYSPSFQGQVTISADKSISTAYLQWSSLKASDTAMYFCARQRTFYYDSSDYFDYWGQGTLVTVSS VL: DIQMTQSPSSVSASVGDRVTITCRASQGISSWLAWYQQKPGKAPKLLIYKASSLQNGVPSRFSGSGSGTDFTLTISSLQPEDFATYFCQQADSFPRTFGQGTKLEIK
Response: Satisfied

Prompt: I wonder whether 6E7 variant V10 (antibody, V domains shown) VH: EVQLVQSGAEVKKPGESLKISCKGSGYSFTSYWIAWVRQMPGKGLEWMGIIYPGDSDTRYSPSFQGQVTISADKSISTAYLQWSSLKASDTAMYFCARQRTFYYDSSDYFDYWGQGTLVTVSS VL: DIQMTQSPSSVSASVGDRVTITCRASQGISSWLAWYQQKPGKAPKLLIYSASSLQNGVPSRFSGSGSGTDFTLTISSLQPEDFATYFCQQADSFPRTFGQGTKLEIK has Binding Signal (fold over 6E7 parental antibody) below 0.4 fold. Can you tell?
Response: Not satisfied

Prompt: Is the reported Binding Signal (fold over 6E7 parental antibody) for 6E7 variant V68 (antibody, V domains shown) VH: EVQLVQSGAEVKKPGESLKISCKGSGYSFTSYWIAWVRQMPGKGLEWMGIIYPGDSDTRYSPSFQGQVTISADKSISTAYLQWSSLKASDTAMYFCARQRTFRYDSSDYFDYWGQGTLVTVSS VL: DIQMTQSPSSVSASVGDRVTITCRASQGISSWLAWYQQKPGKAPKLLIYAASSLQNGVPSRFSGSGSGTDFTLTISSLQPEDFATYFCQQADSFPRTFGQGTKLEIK strictly below 0.4 fold?
Response: Not satisfied

Prompt: Is the reported Binding Signal (fold over 6E7 parental antibody) for 6E7 variant V21 (antibody, V domains shown) VH: EVQLVQSGAEVKKPGESLKISCKGSGYSFTSYWIAWVRQMPGKGLEWMGIIYPGDSDTRYSPSFQGQVTISADKSISTAYLQWSSLKASDTAMYFCARQRTFYYDSSDFFDYWGQGTLVTVSS VL: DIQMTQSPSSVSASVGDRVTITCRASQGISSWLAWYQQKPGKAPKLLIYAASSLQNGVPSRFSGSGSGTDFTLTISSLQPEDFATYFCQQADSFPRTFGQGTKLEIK strictly below 0.4 fold?
Response: Not satisfied

Prompt: is_below(Binding Signal (fold over 6E7 parental antibody), 0.4 fold) for 6E7 variant V59 (antibody, V domains shown) VH: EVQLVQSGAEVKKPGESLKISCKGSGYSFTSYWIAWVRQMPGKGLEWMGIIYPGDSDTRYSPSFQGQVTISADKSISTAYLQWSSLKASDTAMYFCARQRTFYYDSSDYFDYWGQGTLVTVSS VL: DIQMTQSPSSVSASVGDRVTITCRASQGISSWLAWYQQKPGKAPKLLIYAASSLQNGVPSRFSGSGSGTDFTLTISSLQPEDFATYFCMQADSFPRTFGQGTKLEIK ?
Response: Satisfied

Prompt: API: query returns whether the binder falls strictly under 0.4 fold in Binding Signal (fold over 6E7 parental antibody). Query: 6E7 variant V20 (antibody, V domains shown) VH: EVQLVQSGAEVKKPGESLKISCKGSGYSFTSYWIAWVRQMPGKGLEWMGRIYPGDSDTRYSPSFQGQVTISADKSISTAYLQWSSLKASDTAMYFCARQRTFYYDSSDYFDYWGQGTLVTVSS VL: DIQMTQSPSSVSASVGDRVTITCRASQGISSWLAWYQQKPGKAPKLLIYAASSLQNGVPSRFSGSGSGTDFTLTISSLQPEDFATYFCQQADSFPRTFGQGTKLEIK
Response: Satisfied

Prompt: Lab note: Binding Signal (fold over 6E7 parental antibody) threshold 0.4 fold. Does this binder come in strictly under it? 6E7 variant V82 (antibody, V domains shown) VH: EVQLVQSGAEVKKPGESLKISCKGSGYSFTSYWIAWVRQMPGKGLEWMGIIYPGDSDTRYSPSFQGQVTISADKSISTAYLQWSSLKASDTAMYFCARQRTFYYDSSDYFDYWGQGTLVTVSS VL: DIQMTQSPSSVSASVGDRVTITCRASQGISSWLAWYQQKPGKAPKLLIYAGSSLQNGVPSRFSGSGSGTDFTLTISSLQPEDFATYFCQQADSFPRTFGQGTKLEIK
Response: Satisfied

Prompt: Find out if reported Binding Signal (fold over 6E7 parental antibody) for 6E7 variant V30 (antibody, V domains shown) VH: EVQLVQSGAEVKKPGESLKISCKGSGSSFTSYWIAWVRQMPGKGLEWMGIIYPGDSDTRYSPSFQGQVTISADKSISTAYLQWSSLKASDTAMYFCARQRTFYYDSSDYFDYWGQGTLVTVSS VL: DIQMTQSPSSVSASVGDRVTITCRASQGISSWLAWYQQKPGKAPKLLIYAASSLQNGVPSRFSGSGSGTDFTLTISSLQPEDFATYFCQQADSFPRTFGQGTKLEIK is less than 0.4 fold
Response: Not satisfied

Prompt: # check: Binding Signal (fold over 6E7 parental antibody) < 0.4 fold for 6E7 variant V54 (antibody, V domains shown) VH: EVQLVQSGAEVKKPGESLKISCKGSGYSFTSQWIAWVRQMPGKGLEWMGIIYPGDSDTRYSPSFQGQVTISADKSISTAYLQWSSLKASDTAMYFCARQRTFYYDSSDYFDYWGQGTLVTVSS VL: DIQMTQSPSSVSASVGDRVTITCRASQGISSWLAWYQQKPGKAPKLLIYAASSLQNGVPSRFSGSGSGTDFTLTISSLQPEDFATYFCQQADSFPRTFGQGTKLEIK
Response: Not satisfied

Prompt: Lab note: Binding Signal (fold over 6E7 parental antibody) threshold 0.4 fold. Does this binder come in strictly under it? 6E7 variant V47 (antibody, V domains shown) VH: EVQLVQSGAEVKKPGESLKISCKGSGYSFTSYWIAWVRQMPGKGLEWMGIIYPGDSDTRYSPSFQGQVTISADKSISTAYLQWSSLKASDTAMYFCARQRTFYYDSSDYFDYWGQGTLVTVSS VL: DIQMTQSPSSVSASVGDRVTITCRASQGISSWLAWYQQKPGKAPKLLIYAASSLQNGVPSRFSGSGSGTDFTLTISSLQPEDFATYFCQQADSFPMTFGQGTKLEIK
Response: Not satisfied
